Just for reference, patent US8362267B2 is where these values come from.

For each entry below, report its solubility value.
test: Measurement of solubility in water (HPLC); type: physicochemical; details: thermodynamic from solid; in distilled water, 25° C.
One number for each entry, in mg/mL.

List the reported solubility of each molecule below.
1. COc1cc(C(=O)c2ccc(-c3csc(NC(=O)CN)n3)cc2-n2cncn2)cc(OC)c1OC
2. COc1cc(C(=O)c2ccc(-c3csc(NC(=O)[C@@H](N)Cc4ccccc4)n3)cc2-n2cncn2)cc(OC)c1OC
3. COc1cc(C(=O)c2ccc(-c3csc(NC(=O)[C@@H](N)CC(C)C)n3)cc2-n2cncn2)cc(OC)c1OC

### Response
23.3
11
12.1

List the reported solubility of each molecule below.
1. COc1cc(C(=O)c2ccc(-c3csc(N)n3)cc2-n2cncn2)cc(OC)c1OC [Compound 516, reference compound]
2. COc1cc(C(=O)c2ccc(-c3csc(NC(=O)[C@@H](N)C(C)C)n3)cc2-n2cncn2)cc(OC)c1OC

### Response
1: 0.5; 2: 14.9

---

Tested on: CX-1 (human colon adenocarcinoma)
Test: In vivo antitumor activity, human xenograft, colorectal cancer model CX-1
Design: species or system BALB/c nude mice
Details: CX-1 xenograft model, in words
Method: BALB/c male nude mice (4 weeks) available from Central Lab Animal Inc. were used for human xenograft experiments. Sterile food and potable water were freely provided to the mice in an isolated sterile cage and the temperature of the cage was maintained at 23±0.5° C. […] After administration, antitumor activity was evaluated based upon an antitumor inhibition rate (IR %) of tumor growth, obtained by comparing a tumor volume measured on the final day with a tumor volume of a control group. […]

MOL SMILES	ASSAYED SYSTEM	animal death
COc1cc(C(=O)c2ccc(-c3csc(NC(=O)[C@@H](N)C(C)C)n3)cc2-n2cncn2)cc(OC)c1OC	CX-1 (human colon adenocarcinoma)	no animal death
COc1cc(C(=O)c2ccc(-c3csc(NC(=O)CN(C)C)n3)cc2-n2cncn2)cc(OC)c1OC	CX-1 (human colon adenocarcinoma)	no animal death
COc1cc(C(=O)c2ccc(-c3csc(NC(=O)[C@@H](N)Cc4ccccc4)n3)cc2-n2cncn2)cc(OC)c1OC	CX-1 (human colon adenocarcinoma)	no animal death
